# Target: recombinant wild-type SARS-CoV-2 S trimer (ELISA antigen) (SARS-CoV-2 wild-type, UniProt P0DTC2)
Result type: binding result

[[record]]
binder = "P5S-2G8 (antibody, V domains shown) VH: QMQLVQSGAEVKKTGSSVKVSCKASGSTFTHRYLHWVRQAPGQALEWMGWITPFNGDTNYAQKFQDRVTITRDGSMSTVYMDLSSLRSEDTAMYYCAAGARWGDSYYYYGMDVWGQGTAVTVSS VL: QSALTQPPSASGSPGQSVTISCTGTSSDVGGYNYVSWYQQHPDKAPKLMIYEVSKRPSGVPDRFSGSKSGNTASLTVSGLQAEDEADYYCSSYAGNNNLVFGTGTKVTVL"
endpoint_value = "binds"

[[record]]
binder = "P2S-1H6 (antibody, V domains shown) VH: EVQLVESGGGLVQPGRSLRLSCAASGFTFDDYDMHWVRQAPGKGLEWVSGISWNGGIIGYADSVKGRFTISRDNAKTSLYLQMNSLKPEDTALYYCAKVAGRGDYDYYYGMDVWGQGTTVTVSS VL: QSVLTQPPSVSGAPGQRVTISCTGSSSNIGAGYDVHWYQQLPGTAPKLLIYGNNNRPSGVPDRFSGSKSGTSASLAITGLQAEDEADYYCQSYDSSLSGSVFGGGTKLTVL"
endpoint_value = "binds"

[[record]]
binder = "P2-2D8 (antibody, V domains shown) VH: EVQLVESGGGLVKPGGSLRLSCAASGFTFSNAWMNWVRQAPGKGLEWVGRIKSKADGGTTDYAAPVKGRFTISRDDSKNTLYLQMNSLKTDDTAVYYCTTTRAVAATLNFLFSYYDGMDVWGQGTTVTVSS VL: NFMLTQPHSVSESPGKTVTISCTGSSGSIASNYVQWYQQRPGSAPTTVIYEDNQRPSGVPDRFSGSIDSSSNSASLTISGLKTEDEADYYCQSYDSNNHLVLFGGGTKLTVL"
endpoint_value = "binds"

